Molecular target: DYRK3 (Homo sapiens)
Construct: purchased Carna Biosciences, Inc. 04-133
Sequence (O43781 1-568 isoform O43781-2): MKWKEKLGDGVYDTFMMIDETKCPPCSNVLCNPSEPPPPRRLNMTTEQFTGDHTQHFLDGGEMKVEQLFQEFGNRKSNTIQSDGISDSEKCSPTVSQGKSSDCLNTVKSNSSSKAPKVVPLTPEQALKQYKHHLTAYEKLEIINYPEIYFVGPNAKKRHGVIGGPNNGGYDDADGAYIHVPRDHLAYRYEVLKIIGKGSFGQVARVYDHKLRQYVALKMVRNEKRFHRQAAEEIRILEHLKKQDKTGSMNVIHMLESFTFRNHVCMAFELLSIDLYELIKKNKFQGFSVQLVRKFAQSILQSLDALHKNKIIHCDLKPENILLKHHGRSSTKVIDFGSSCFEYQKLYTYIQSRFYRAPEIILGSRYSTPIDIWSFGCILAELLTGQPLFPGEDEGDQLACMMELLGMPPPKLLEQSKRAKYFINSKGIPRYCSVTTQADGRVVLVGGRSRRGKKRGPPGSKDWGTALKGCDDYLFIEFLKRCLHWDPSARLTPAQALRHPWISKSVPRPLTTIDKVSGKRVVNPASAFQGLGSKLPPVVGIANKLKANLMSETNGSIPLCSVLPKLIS
Test: Inhibition test on activity of DYRK family, mobility shift assay (MSA): DYRK3
Format: biochemical
Details: MSA, FITC-labeled DYRKtide peptide, ATP 20 μM; read-out: Inhibitory activity DYRK 3 (IC50 class)
Method: [Inhibition Test on Activity of DYRK Family (DYRK1A, DYRK1B, DYRK2, and DYRK3)] The kinase activity was measured by mobility shift assay (MSA) method using QuickScout Screening Assist™ MSA (commercially available kit manufactured by Carna Biosciences, Inc.). […] The heights of the peaks of the “substrate” and the “phosphorylated substrate” were expressed as S and P, respectively, and a blank containing the assay buffer instead of the enzyme solution was also measured. […]
experimentalEndpoint: IC50

[[record]]
compound = "O=C1N[C@H]2CCCNC[C@H]2N1c1nc2c3c(ccc2s1)OCC3"
systemundertest = "DYRK3 (Homo sapiens)"
valueobserved = "100 to 1000 nM"

[[record]]
compound = "C[C@H]1C[C@H]2NC(=O)N(c3nc4c5c(ccc4s3)OCC5)[C@H]2CO1"
systemundertest = "DYRK3 (Homo sapiens)"
valueobserved = "≥ 1000 nM"

[[record]]
compound = "O=C1N[C@H]2CO[C@@H](CF)C[C@H]2N1c1nc2c3c(ccc2s1)OCCO3"
systemundertest = "DYRK3 (Homo sapiens)"
valueobserved = "10 to 100 nM"

[[record]]
compound = "O=C1NC2CCNCC2N1c1nc2c3c(ccc2s1)OCO3 (centres unmarked)"
systemundertest = "DYRK3 (Homo sapiens)"
valueobserved = "≥ 1000 nM"

[[record]]
compound = "CC(C)(C)OC(=O)N1CC(N2CC[C@@H]3NC(=O)N(c4nc5c6c(ccc5s4)OCC6)[C@@H]3C2)C1"
systemundertest = "DYRK3 (Homo sapiens)"
valueobserved = "≥ 1000 nM"

[[record]]
compound = "O=C1N[C@H]2CCN(C3COC3)C[C@H]2N1c1nc2c3c(ccc2s1)OCC3 (racemic)"
systemundertest = "DYRK3 (Homo sapiens)"
valueobserved = "≥ 1000 nM"

[[record]]
compound = "O=C1N[C@H]2CNCC[C@H]2N1c1nc2c3c(ccc2s1)OCO3"
systemundertest = "DYRK3 (Homo sapiens)"
valueobserved = "100 to 1000 nM"

[[record]]
compound = "CN1CC[C@@H]2NC(=O)N(c3nc4c5c(ccc4s3)OCC5)[C@@H]2C1 (single isomer, unassigned) [Example 28]"
systemundertest = "DYRK3 (Homo sapiens)"
valueobserved = "≥ 1000 nM"

